- Tested on: TNK2;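 also: KINOMEscan kinase panel screen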
- settings: concentration: 1 μM, replicates: in singlicate; n = 1
Field: label. Allowed values: label 1 (%Inh < 2%) or label 0 (%Inh >= 2%).

Illustrative cases are given below, each with its answer.
CC(C)NCC(Cc1ccccc1)NC(=O)c1cc(Br)c(-c2ccnc3[nH]ccc23)s1.Cl.Cl (centres unmarked) | label 1
Cl.O=C(Nc1ccc(Oc2ccc3[nH]c(NC(=O)c4ccco4)nc3c2)cc1)Nc1cc(C(F)(F)F)ccc1F | label 0
CN(C)c1ncnc2nc[nH]c12 | label 1

Request: State whether 2% exceeds %Inh recorded for COc1cccc(NC(=O)NCCNc2ccnc(Nc3ccc(F)cc3)n2)c1 .
Result: label 0

Request: State whether 2% exceeds %Inh recorded for Cl.Cl.NC(CNC(=O)c1cc(Br)c(-c2ccnc3[nH]ccc23)s1)c1ccccc1 (centres unmarked) .
Result: label 0

Request: State whether 2% exceeds %Inh recorded for CCn1c(-c2nonc2N)nc2c(-c3ccccc3)ncc(OCCCN)c21.O=C(O)C(F)(F)F.O=C(O)C(F)(F)F .
Result: label 0

Request: State whether 2% exceeds %Inh recorded for Cn1cc(-c2ccc3c(c2)CCN3C(=O)Cc2cc(F)cc(F)c2F)c2c(N)ncnc21 .
Result: label 0
